The values you see were collected from patent US9187460B2.

System Tested: ER-α (Homo sapiens)
Construct: endogenous in cells; host or cells: MCF-7
Sequence (P03372 whole entry): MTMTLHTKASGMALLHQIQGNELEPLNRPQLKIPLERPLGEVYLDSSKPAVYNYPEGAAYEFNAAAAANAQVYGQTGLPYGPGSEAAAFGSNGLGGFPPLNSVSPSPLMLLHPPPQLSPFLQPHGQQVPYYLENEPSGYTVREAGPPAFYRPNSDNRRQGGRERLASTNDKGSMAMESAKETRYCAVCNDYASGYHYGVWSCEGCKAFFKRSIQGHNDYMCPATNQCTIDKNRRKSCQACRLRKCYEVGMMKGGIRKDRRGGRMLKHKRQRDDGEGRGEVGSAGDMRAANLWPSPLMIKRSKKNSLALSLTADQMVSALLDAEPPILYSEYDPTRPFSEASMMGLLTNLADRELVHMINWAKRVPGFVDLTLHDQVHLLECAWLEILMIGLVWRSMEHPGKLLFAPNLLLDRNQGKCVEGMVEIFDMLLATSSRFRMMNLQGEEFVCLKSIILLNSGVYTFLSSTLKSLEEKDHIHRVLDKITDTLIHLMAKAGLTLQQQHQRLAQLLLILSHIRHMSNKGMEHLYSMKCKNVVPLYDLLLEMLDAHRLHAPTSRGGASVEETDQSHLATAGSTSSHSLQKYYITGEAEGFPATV
Assay Summary: Breast Cancer Cell ER-α in Cell Western Assay (SP1)
Type: cell-based
Assay Setup: MCF7, read-out: ER In-Cell Western Assay (SP1); Max Response
Measured Endpoint: Emax

>>> measured_value("CC1=C(c2cccc(O)c2)C(c2ccc(OC[C@H](C)N3CC[C@@H](O)C3)cc2)Oc2ccc(O)cc21 (stereo partly drawn)")
"< 60%"
>>> measured_value("CC1=C(c2cccc(O)c2)C(c2ccc(OCCN3CCOC[C@H]3C)cc2)Oc2ccc(O)cc21 (stereo partly drawn)")
"< 60%"
>>> measured_value("CC1=C(c2cccc(O)c2)C(c2ccc(OC[C@H](C)N3CCOC[C@H]3C)cc2)Oc2ccc(O)cc21 (stereo partly drawn)")
"< 60%"
>>> measured_value("CC1=C(c2cccc(O)c2)C(c2ccc(OCCN3CCOC[C@@H]3C)cc2)Oc2ccc(O)cc21 (stereo partly drawn)")
"< 60%"
>>> measured_value("CC1=C(c2cccc(O)c2)C(c2ccc(OCCN3CCO[C@@H](C)C3)cc2)Oc2ccc(O)cc21 (stereo partly drawn)")
"< 60%"
>>> measured_value("CC1=C(c2cccc(O)c2)C(c2ccc(OCCN3CCOCC3)cc2)Oc2ccc(O)cc21 (stereo not drawn)")
"60 to 85%"
>>> measured_value("CC1=C(c2cc(O)cc(C#N)c2)C(c2ccc(OC[C@H](C)N3CC[C@@H](C)C3)cc2)Oc2ccc(O)cc21 (stereo partly drawn)")
"60 to 85%"
>>> measured_value("CC1=C(c2cccc(O)c2)C(c2ccc(OCCN3CCSCC3)cc2)Oc2ccc(O)cc21 (stereo not drawn)")
"60 to 85%"
>>> measured_value("CC1=C(c2ccc(C#N)cc2)C(c2ccc(OC[C@H](C)N3CC[C@@H](C)C3)cc2)Oc2ccc(O)cc21 (stereo partly drawn)")
"60 to 85%"
>>> measured_value("CC1=C(c2cc(O)cc(S(C)(=O)=O)c2)C(c2ccc(OC[C@H](C)N3CC[C@@H](C)C3)cc2)Oc2ccc(O)cc21 (stereo partly drawn)")
"60 to 85%"
>>> measured_value("CC1=C(c2ccccc2C#N)C(c2ccc(OC[C@H](C)N3CC[C@@H](C)C3)cc2)Oc2ccc(O)cc21 (stereo partly drawn)")
"60 to 85%"
>>> measured_value("CC1=C(c2cccc(O)c2)C(c2ccc(OC[C@H](C)N3CCN(C)C[C@H]3C)cc2)Oc2ccc(O)cc21 (stereo partly drawn)")
"< 60%"
>>> measured_value("CC1=C(c2ccc(O)c(S(C)(=O)=O)c2)C(c2ccc(OC[C@H](C)N3CC[C@@H](C)C3)cc2)Oc2ccc(O)cc21 (stereo partly drawn)")
"< 60%"
>>> measured_value("CC1=C(c2cccc(O)c2)C(c2ccc(OC[C@H](C)N3CCOCC3)cc2)Oc2ccc(O)cc21 (stereo partly drawn)")
"60 to 85%"
>>> measured_value("CC1=C(c2ccc(C#N)cc2C)C(c2ccc(OC[C@H](C)N3CC[C@@H](C)C3)cc2)Oc2ccc(O)cc21 (stereo partly drawn)")
"60 to 85%"
